Experiment: In-vivo biodistribution in rats
Parameters: species or system rat
Conditions: rat, in vivo, 30 min; read-out: Regional uptake, Cerebellum
Protocol: In-vivo biodistribution studies were performed in rats^27 with the two hydroxylated radioligands: [^123 I]-7-OH-DPAT and [^123 I]-7-OH-PIPAT in rats. Concerning [^123 I]-7-OH-DPAT rats were killed either two minutes or thirty minutes post injection and the data are reported in Table 5. […] On the contrary, [^123 I]-7-OH-PIPAT presented a very high brain uptake: 11.812, 9,458 and 5.433% dose/gram of tissue at 2, 30 and 60 min. respectively (See Table 6). […]
property-measured: tissue uptake at 0.5 h (%ID/g)
# unit: %ID/g | format: bare number

Quick note, tissue uptake at 0.5 h for CCCN(CCC)C1CCc2ccc(O)c([123I])c2C1 (stereo not shown) [[^123 I]-7-OH-DPAT, reference compound] landed at 0.25

====

Assay: In-vivo biodistribution in rats
Design: species or system rat
Details: rat, cortex; 30 min; read-out: Regional uptake, Cortex
property-measured: tissue uptake at 0.5 h (%ID/g)
# unit: %ID/g | format: bare number

Quick note, tissue uptake at 0.5 h for CCCN(C/C=C/[123I])C1CCc2ccc(O)cc2C1 (stereo not shown) [[^123 I]-7-OH-PIPAT] landed at 0.265

====

Assay: In-vivo biodistribution in rats
Set-up: species or system rat
Details: rat, rem; 2 min; read-out: Regional uptake, REM
property-measured: tissue uptake at 2 min
Give your result as the value with the unit written after it.

Quick note, tissue uptake at 2 min for CCCN(C/C=C/[123I])C1CCc2ccc(O)cc2C1 (stereo not shown) [[^123 I]-7-OH-PIPAT] landed at 1.67 %ID/g

====

Experiment: In-vivo biodistribution in rats
Parameters: species or system rat
Conditions: rat, hippocampus; 2 min; read-out: Regional uptake, Hippocampus
property-measured: tissue uptake at 2 min (%ID/g)
# unit: %ID/g | format: bare number

Quick note, tissue uptake at 2 min for CCCN(C/C=C/[123I])C1CCc2ccc(O)cc2C1 (stereo not shown) [[^123 I]-7-OH-PIPAT] landed at 1.63

====

What pKi was measured for each of the following?
Please treat pKi as minus the base-10 logarithm of the molar concentration.

Record `NCCc1c[nH]c2ccc(O)cc12` has D3 receptors (expressed in Sf9 cells) (Rattus norvegicus) pKi equal to 5.63

Record CCN1CCC[C@H]1CNC(=O)c1c(O)c(Cl)cc(Cl)c1OC [Raclopride] has D3 receptors (expressed in Sf9 cells) (Rattus norvegicus) pKi equal to 8.03

Record `COC(=O)[C@@H]1[C@H]2C[C@H]3c4[nH]c5ccccc5c4CCN3C[C@@H]2CC[C@@H]1O` has D3 receptors (expressed in Sf9 cells) (Rattus norvegicus) pKi equal to 5.61

====

Target: D2 dopamine receptor (Rattus norvegicus, UniProt P61169)
Construct: made in house; host or cells: Sf9 insect cells infected with recombinant baculovirus (AcMNPVrD2L or AcMNPVrD2S), membrane homogenates
Sequence (P61169 whole entry): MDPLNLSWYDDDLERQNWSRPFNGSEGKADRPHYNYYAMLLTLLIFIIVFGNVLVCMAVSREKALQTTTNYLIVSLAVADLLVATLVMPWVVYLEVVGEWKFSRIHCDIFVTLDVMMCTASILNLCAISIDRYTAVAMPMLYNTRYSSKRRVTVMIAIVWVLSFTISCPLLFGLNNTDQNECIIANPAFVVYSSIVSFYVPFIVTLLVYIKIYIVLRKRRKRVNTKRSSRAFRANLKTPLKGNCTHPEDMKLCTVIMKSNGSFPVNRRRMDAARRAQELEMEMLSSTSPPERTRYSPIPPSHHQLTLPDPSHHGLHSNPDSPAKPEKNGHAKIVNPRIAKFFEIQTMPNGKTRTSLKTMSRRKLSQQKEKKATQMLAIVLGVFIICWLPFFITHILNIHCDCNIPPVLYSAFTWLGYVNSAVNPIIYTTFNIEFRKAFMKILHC
Test: Inhibition of [^125 I]NCQ298 binding to D2 dopamine receptors expressed in Sf9 cells
Details: Table 4 and its discussion; [^125 I]-NCQ298 0.05 nM, 37° C., 20 min; read-out: Ki D2
Ki strictly under 600 nM means Criterion met; at 600 nM or over means Criterion not met.

Ask: Is it true that Ki reported for Oc1ccc2c(c1)CC(NCc1ccccc1)CC2 (stereo not shown) [7-OH-BAT, 7Hydroxy-2-N-n-Benzylaminotetralin] is less than 600 nM?
Reply: Criterion not met

Ask: Is it true that Ki reported for CCCN(C/C=C/I)C1CCc2ccc(OC)cc2C1 (stereo not shown) is less than 600 nM?
Reply: Criterion not met

Ask: Is it true that Ki reported for C#CCN(CCC)C1CCc2ccc(O)cc2C1 (stereo not shown) is less than 600 nM?
Reply: Criterion met

Ask: Is it true that Ki reported for CCCN(CCC)C1CCc2ccc(O)c(I)c2C1 (stereo not shown) is less than 600 nM?
Reply: Criterion met

Ask: Is it true that Ki reported for CCCN(C/C=C/I)C1CCc2ccc(O)cc2C1 (stereo not drawn) [trans-7-OH-PIPAT] is less than 600 nM?
Reply: Criterion met

Ask: Is it true that Ki reported for CCCNC1CCc2ccc(O)cc2C1 (stereo not shown) [7-OH-MPAT, 7Hydroxy-2-N-n-Propylaminotetralin] is less than 600 nM?
Reply: Criterion not met

Ask: Is it true that Ki reported for COc1ccc2c(c1)CC(NCc1ccccc1)CC2 (stereo not shown) is less than 600 nM?
Reply: Criterion not met

Reference source: patent US5690906A
